- Subject Of Test: MCL-1 (Homo sapiens (Human), UniProt Q07820, K194A/K197A/R201A)
- Sequence (Q07820 whole entry K194A/K197A/R201A, looked up): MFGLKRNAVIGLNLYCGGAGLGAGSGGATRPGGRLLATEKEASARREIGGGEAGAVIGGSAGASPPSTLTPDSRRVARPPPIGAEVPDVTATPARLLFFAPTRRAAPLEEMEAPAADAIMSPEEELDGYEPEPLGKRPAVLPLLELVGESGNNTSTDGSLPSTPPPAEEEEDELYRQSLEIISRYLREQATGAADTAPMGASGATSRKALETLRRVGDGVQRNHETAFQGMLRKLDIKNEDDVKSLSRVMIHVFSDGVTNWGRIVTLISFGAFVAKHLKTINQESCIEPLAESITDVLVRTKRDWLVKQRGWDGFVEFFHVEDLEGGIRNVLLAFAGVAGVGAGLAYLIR
- Experiment Summary: Protein-protein interaction assay MCL-1/Noxa BH3 peptide (MCL-1 assay), TR-FRET
- Type: binding
- Condition Details: MCL-1/Noxa BH3 peptide TR-FRET; median
Measured Attribute: IC50 (nM)

Take a look at these entries with their results.
Measured IC50, CCc1c2c(nn1C)COCCCCn1c(C(=O)O)c(CCCOc3cccc4ccccc34)c3ccc(F)c-2c31 (racemic) [Example 6] : 1.1

Recorded IC50 (molecule CCc1c2c(nn1C)COCCCCn1c(C(=O)O)c(CCCOc3cccc4cc(F)ccc34)c3ccc(F)c-2c31 (single isomer, unassigned; enantiomer 1) [Example 22] ): 0.45

IC50 measured on `Cc1c2c(nn1C)C[N+](C)(C)CCCCn1c(C(=O)O)c(CCCOc3cccc4ccccc34)c3ccc(F)c-2c31` = 0.84

According to the records, this molecule Cc1c2c(nn1C)COCCCCn1c(C(=O)O)c(CCCOc3ccc(F)c4ccccc34)c3ccc(F)c-2c31 (racemic) [Example 15] displays IC50 of 1.3

// IC50 lookup, molecule = CCc1c2c(nn1C)COCCCCn1c(C(=O)O)c(CCCOc3cccc4c3CCCC4)c3ccc(F)c-2c31 (racemic) , result: 1.5

[P] Cc1c2c(nn1C)COCCCCn1c(C(=O)O)c(CCCOc3ccc(F)c4ccccc34)c3ccc(F)c-2c31 (single isomer, unassigned; enantiomer 2) [Example 17]
[Q] CCc1c2c(nn1C)CN(C)CCCCn1c(C(=O)O)c(CCCOc3cccc4cc(F)ccc34)c3ccc(F)c-2c31 (racemic)
**Q:** Which value of IC50 is smaller, the one for P or the one for Q ? Selection: enter the item's label.
**A:** Q

* * *

- System: SUDHL10
- Experiment Summary: Induction of caspase-3/7 activity, SUDHL10 (Assay 4)
- Assay type: cell-based
- Condition Details: SUDHL10 cells, 3 h, Caspase-Glo 3/7; median
Measured Attribute: EC50

So for CCc1c2c(nn1C)COCCCCn1c(C(=O)O)c(CCCOc3ccc(F)c4ccccc34)c3ccc(F)c-2c31 (single isomer, unassigned; enantiomer 2) [Example 28] , the logged EC50 turned out to be > 33 µM

CCc1c2c(nn1C)COCCCCn1c(C(=O)O)c(CCCOc3cccc4ccccc34)c3ccc(F)c-2c31 (single isomer, unassigned; enantiomer 2) [Example 8] yielded EC50 of > 33 µM

--- query ---
CCc1nn(C)c2c1-c1c(F)ccc3c(CCCOc4ccc(F)c5ccccc45)c(C(=O)O)n(c13)CCCCOC2 (single isomer, unassigned; enantiomer 2) [Example 43] has a reported EC50 of > 33 µM

* * *

- System: SUDHL5
- Experiment Summary: Induction of caspase-3/7 activity, SUDHL5 (Assay 4)
- Type: cell-based
- Condition Details: Homo sapiens, SU-DHL-5, 3 h, SUDHL5 cells, Caspase-Glo 3/7, median
- From the text: Induction of Caspase-3/7 Activity upon Treatment of Cells with Selected Compounds The BH3-domain of MCL-1 sequesters pro-apoptotic proteins, thereby inhibiting apoptosis. In contrast, MCL-1 inhibitors are expected to antagonize this effect leading to an increase in apoptosis, which can be determined by measuring the activity of caspase-3/7. […] For the evaluation of the results, the background measured with “medium-only” was subtracted from all other values. […]
Measured Attribute: EC50 (nM)

Kindly note the recorded EC50 for CCc1c2c(nn1C)CN(C)CCCCn1c(C(=O)O)c(CCCOc3cccc4ccccc34)c3ccc(F)c-2c31 (racemic) , which is 230

response.value for CCc1c2c(nn1C)COCCCCn1c(C(=O)O)c(CCCOc3cccc4ccccc34)c3ccc(F)c-2c31 (racemic) (field: EC50) = 400

Value of EC50 reported for the compound Cc1nn(C)c2c1-c1c(F)ccc3c(CCCOc4ccc(F)c5ccccc45)c(C(=O)O)n(c13)CCCCOC2 (racemic) is 2900

Record Cc1nn(C)c2c1-c1c(F)ccc3c(CCCOc4cccc5ccccc45)c(C(=O)O)n(c13)CCCCOC2 (racemic) . Reported EC50: 1700

The reported EC50 of the compound Cc1nn(C)c2c1-c1c(F)ccc3c(CCCOc4cccc5c4CCCC5)c(C(=O)O)n(c13)CCCCOC2 (racemic) was 1800

[I] Cc1c2c(nn1C)COCCCCn1c(C(=O)O)c(CCCOc3cccc4cc(F)ccc34)c3ccc(F)c-2c31 (racemic)
[II] Cc1c2c(nn1C)C[N+](C)(C)CCCCn1c(C(=O)O)c(CCCOc3cccc4ccccc34)c3ccc(F)c-2c31
[III] Cc1c2c(nn1C)COCCCCn1c(C(=O)O)c(CCCOc3cccc4c3CCCC4)c3ccc(F)c-2c31 (racemic)
[IV] Cc1cc(OCCCc2c(C(=O)O)n3c4c(c(F)ccc24)-c2c(nn(C)c2C)COCCCC3)cc(C)c1Cl (racemic)
**Q:** Hey, quick one: sort these by EC50, low to high? Provide your answer as the labels ordered per the instruction.
**A:** I, III, IV, II
(I: 480 nM, III: 840 nM, IV: 1400 nM, II: 20000 nM)

[I] CCc1c2c(nn1C)COCCCCn1c(C(=O)O)c(CCCOc3cccc4c3CCCC4)c3ccc(F)c-2c31 (racemic)
[II] Cc1nn(C)c2c1-c1c(F)ccc3c(CCCOc4cccc5ccccc45)c(C(=O)O)n(c13)C/C=C\COC2 (racemic)
**Q:** Of I and II , which shows the smaller EC50 value? Selection: enter the item's label.
**A:** I

* * *

- Subject Of Test: MCL-1 (Homo sapiens (Human), UniProt Q07820, K194A/K197A/R201A)
- Experiment Summary: Protein-protein interaction assay MCL-1/Noxa BH3 peptide (MCL-1 assay), TR-FRET
- Type: binding
- Condition Details: MCL-1/Noxa BH3 peptide TR-FRET; median
Structures can show the parent of a compound that is named as a salt.
Measured Attribute: IC50 (nM)

Short answer on MCL-1 (Homo sapiens (Human), UniProt Q07820, K194A/K197A/R201A) for CCc1c2c(nn1C)COCCCCn1c(C(=O)O)c(CCCOc3cc(C)c(Cl)c(C)c3)c3ccc(F)c-2c31 (racemic) [Example 31] , IC50: 1.8

The value of IC50 recorded for CCc1nn(C)c2c1-c1c(F)ccc3c(CCCOc4cc(C)c(Cl)c(C)c4)c(C(=O)O)n(c13)CCCCOC2 (racemic) [Example 46] when tested on MCL-1 (Homo sapiens (Human), UniProt Q07820, K194A/K197A/R201A) reads 2

Lab entry: MCL-1 (Homo sapiens (Human), UniProt Q07820, K194A/K197A/R201A) assay, compound Cc1c2c(nn1C)CNCCCCn1c(C(=O)O)c(CCCOc3cccc4ccccc34)c3ccc(F)c-2c31 (racemic) [Example 47, trifluoroacetic acid salt] , IC50 = 0.82

* * *

- Tested on: SUDHL5
- Experiment Summary: Induction of caspase-3/7 activity, SUDHL5 (Assay 4)
- Assay type: cell-based
- Condition Details: Homo sapiens, SU-DHL-5, 3 h, SUDHL5 cells, Caspase-Glo 3/7, median
Measured Attribute: EC50 (µM)

The compound CCc1nn(C)c2c1-c1c(F)ccc3c(CCCOc4cc(C)c(Cl)c(C)c4)c(C(=O)O)n(c13)CCCCOC2 (racemic) [Example 46] on SUDHL5: EC50 was 2.5

// assay SUDHL5, entry Cc1c2c(nn1C)COCCCCn1c(C(=O)O)c(CCCOc3ccc(F)c4ccccc34)c3ccc(F)c-2c31 (racemic) [Example 15] , EC50 value = 0.97

[a] CCc1nn(C)c2c1-c1c(F)ccc3c(CCCOc4cccc5cc(F)ccc45)c(C(=O)O)n(c13)CCCCOC2 (racemic) [Example 38]
[b] CCc1c2c(nn1C)COCCCCn1c(C(=O)O)c(CCCOc3cc(C)c(Cl)c(C)c3)c3ccc(F)c-2c31 (racemic) [Example 31]
**Q:** Of a and b , which carries the smaller reported EC50 figure? Give the label of your selection.
**A:** a
